biological target: CDK7/CyclinH/MAT1 (Homo sapiens); experiment: Determination of CDK activity (Caliper mobility shift, FAM-P8 peptide): CDK7; format: biochemical; settings: CDK7/CyclinH/MAT1; read-out: CDK7 enzymatic inhibitory activity (IC50)
Sequence (P50613 whole entry): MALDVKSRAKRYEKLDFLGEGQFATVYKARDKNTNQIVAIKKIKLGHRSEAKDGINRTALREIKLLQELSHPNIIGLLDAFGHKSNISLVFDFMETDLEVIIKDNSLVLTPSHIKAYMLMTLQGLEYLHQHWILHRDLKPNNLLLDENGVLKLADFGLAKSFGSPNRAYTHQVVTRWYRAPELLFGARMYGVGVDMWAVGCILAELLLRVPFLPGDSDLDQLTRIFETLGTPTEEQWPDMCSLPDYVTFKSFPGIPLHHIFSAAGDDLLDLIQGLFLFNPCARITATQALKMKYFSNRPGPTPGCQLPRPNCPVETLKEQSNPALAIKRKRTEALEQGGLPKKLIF
Sequence (P51946 whole entry partner): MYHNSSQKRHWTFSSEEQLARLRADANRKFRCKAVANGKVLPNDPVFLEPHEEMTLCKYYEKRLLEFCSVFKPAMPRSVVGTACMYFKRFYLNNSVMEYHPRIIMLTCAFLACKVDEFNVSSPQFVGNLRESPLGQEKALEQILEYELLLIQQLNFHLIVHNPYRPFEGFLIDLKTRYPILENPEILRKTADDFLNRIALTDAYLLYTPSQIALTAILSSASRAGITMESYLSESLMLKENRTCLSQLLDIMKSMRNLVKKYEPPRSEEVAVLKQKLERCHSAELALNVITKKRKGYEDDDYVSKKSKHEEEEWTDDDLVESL
Sequence (P51948 whole entry partner): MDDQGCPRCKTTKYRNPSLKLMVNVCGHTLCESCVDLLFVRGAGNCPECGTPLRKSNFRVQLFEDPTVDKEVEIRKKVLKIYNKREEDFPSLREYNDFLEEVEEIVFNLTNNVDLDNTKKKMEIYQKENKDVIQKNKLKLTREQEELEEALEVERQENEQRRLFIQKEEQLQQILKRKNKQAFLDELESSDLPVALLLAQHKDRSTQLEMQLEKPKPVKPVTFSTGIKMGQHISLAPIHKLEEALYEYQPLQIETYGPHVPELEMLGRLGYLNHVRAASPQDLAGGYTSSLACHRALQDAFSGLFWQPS
Property Measured: IC50

Lookup: Specify IC50 for COCCN1CCC([C@H](C)c2ccc(Nc3ncc(F)c(-c4cc(F)c5nc(C)n(C(C)C)c5c4)n3)nc2)CC1 (single isomer, unassigned) and stop.
Found: 1 to 10 µM

Lookup: Specify IC50 for CC[C@@H](c1ccc(Nc2ncc(F)c(-c3cc(F)c4nc(C)n(C(C)C)c4c3)n2)nc1)N1CCN(C)CC1 and stop.
Found: 1 to 10 µM

Lookup: Specify IC50 for COCCCN1CCC([C@@H](C)c2ccc(Nc3ncc(F)c(-c4cc(F)c5nc(C)n(C(C)C)c5c4)n3)nc2)CC1 and stop.
Found: 1 to 10 µM

Lookup: Specify IC50 for Cc1nc2c(F)cc(-c3nc(Nc4ccc([C@@H](C)C5CCN(C)CC5)cn4)ncc3F)cc2n1C(C)C (single isomer, unassigned) and stop.
Found: 1 to 10 µM

Lookup: Specify IC50 for CCN1CCC(C(OC(C)=O)c2ccc(Nc3ncc(F)c(-c4cc(F)c5nc(C)n(C(C)C)c5c4)n3)nc2)CC1 (single isomer, unassigned) [Example 72] and stop.
Found: 1 to 10 µM

Lookup: Specify IC50 for Cc1nc2c(F)cc(-c3nc(Nc4ccc(C=C5CCN(C)CC5)cn4)ncc3F)cc2n1C(C)C and stop.
Found: 1 to 10 µM

Lookup: Specify IC50 for Cc1nc2c(F)cc(-c3nc(Nc4ccc([C@@H](C)C5CCN(C6CC6)CC5)cn4)ncc3F)cc2n1C(C)C and stop.
Found: 1 to 10 µM

Lookup: Specify IC50 for CC[C@@H](c1ccc(Nc2ncc(F)c(-c3cc(F)c4nc(C)n(C(C)C)c4c3)n2)nc1)C1CCN(CC)CC1 and stop.
Found: 1 to 10 µM

Lookup: Specify IC50 for Cc1nc2c(F)cc(-c3nc(Nc4ccc([C@H](O)C5CCN(C)CC5)cn4)ncc3F)cc2n1C(C)C and stop.
Found: 0.1 to 0.5 µM

Lookup: Specify IC50 for CCN1CCC([C@@H](OC)c2ccc(Nc3ncc(F)c(-c4cc(F)c5nc(C)n(C(C)C)c5c4)n3)nc2)CC1 and stop.
Found: 1 to 10 µM

Lookup: Specify IC50 for CCN1CCC(=C(C)c2ccc(Nc3ncc(F)c(-c4cc(F)c5nc(C)n(C(C)C)c5c4)n3)nc2)CC1 and stop.
Found: 1 to 10 µM

Lookup: Specify IC50 for Cc1nc2c(F)cc(-c3nc(Nc4ccc([C@@H](O)C5CCN(C)CC5)cn4)ncc3F)cc2n1C(C)C and stop.
Found: 0.1 to 0.5 µM

Lookup: Specify IC50 for Cc1nc2c(F)cc(-c3nc(Nc4ccc(C(C)C5CCNCC5)cn4)ncc3F)cc2n1C(C)C (single isomer, unassigned) [Example 20] and stop.
Found: 1 to 10 µM

====

assay: Pharmacokinetic study in rats; type: in vivo, Sprague-Dawley rats; conditions: rat; male Sprague-Dawley rats, plasma; study dosed iv 2 mg/kg and oral 5 mg/kg, route of this parameter not given
Property Measured: Cmax

Lookup: Specify Cmax for C=C(c1ccc(Nc2ncc(F)c(-c3cc(F)c4nc(C)n(C(C)C)c4c3)n2)nc1)C1CCN(CC)CC1 [Example 33] and stop.
Found: 161 ng/mL

Lookup: Specify Cmax for CCN1CCC(C(C)c2ccc(Nc3ncc(F)c(-c4cc(F)c5nc(C)n(C(C)C)c5c4)n3)nc2)CC1 (single isomer, unassigned) [Example 17] and stop.
Found: 225 ng/mL

Lookup: Specify Cmax for CCN1CCC(C(O)c2ccc(Nc3ncc(F)c(-c4cc(F)c5nc(C)n(C(C)C)c5c4)n3)nc2)CC1 (single isomer, unassigned) [Example 40] and stop.
Found: 12.9 ng/mL

Lookup: Specify Cmax for CCN1CCC(=Cc2ccc(Nc3ncc(F)c(-c4cc(F)c5nc(C)n(C(C)C)c5c4)n3)nc2)CC1 [Example 57] and stop.
Found: 205 ng/mL

====

I'd appreciate it if you could supply pIC50 values for the items below.
Molecular target: CDK2/CycA2 (Homo sapiens)
Assay: Determination of CDK activity (Caliper mobility shift, FAM-P8 peptide): CDK2
Type: biochemical
Settings: CDK2/CycA2; read-out: CDK2 enzymatic inhibitory activity (IC50)
Description: In vitro, CDK (CDK4, CDK6, CDK1, CDK2, CDK7, and CDK9) kinase activity was tested by the following method. 1. Prepared 1× Kinase Buffer and Stop Buffer for the Test 1) 1× Kinase Base Buffer (CDK1, 2, and 6). 1) Diluted the compound to 50 times of the maximum concentration with 100% DMSO. For example, if the desired maximum inhibitory concentration is 10 μM, then a DMSO solution of 500 μM concentration is required. […] 5. Caliper Reading: Collect Data on Caliper. […]
pIC50: −log10 of the molar value.

Lookup: Specify pIC50 for CC[C@@H](c1ccc(Nc2ncc(F)c(-c3cc(F)c4nc(C)n(C(C)C)c4c3)n2)nc1)N1CCN(C)CC1 and stop.
Found: 5.00 to 6.00

Lookup: Specify pIC50 for COCCN1CCC([C@@H](C)c2ccc(Nc3ncc(F)c(-c4cc(F)c5nc(C)n(C(C)C)c5c4)n3)nc2)CC1 (single isomer, unassigned) and stop.
Found: > 7.00

Lookup: Specify pIC50 for CCN1CCC(C(O)c2ccc(Nc3ncc(F)c(-c4cc(F)c5nc(C)n(C(C)C)c5c4)n3)nc2)CC1 (single isomer, unassigned) [Example 41] and stop.
Found: > 7.00

Lookup: Specify pIC50 for Cc1nc2c(F)cc(-c3nc(Nc4ccc([C@H](C)C5CCN(CC(F)F)CC5)cn4)ncc3F)cc2n1C(C)C and stop.
Found: > 7.00

Lookup: Specify pIC50 for COCCCN1CCC([C@@H](C)c2ccc(Nc3ncc(F)c(-c4cc(F)c5nc(C)n(C(C)C)c5c4)n3)nc2)CC1 and stop.
Found: > 7.00

Lookup: Specify pIC50 for CC[C@@H](c1ccc(Nc2ncc(F)c(-c3cc(F)c4nc(C)n(C(C)C)c4c3)n2)nc1)C1CCN(CC)CC1 and stop.
Found: 6.30 to 7.00

Lookup: Specify pIC50 for Cc1nc2c(F)cc(-c3nc(Nc4ccc([C@@H](C)C5CCN(CC(F)(F)F)CC5)cn4)ncc3F)cc2n1C(C)C and stop.
Found: 6.30 to 7.00

Lookup: Specify pIC50 for CCN1CCC(C(O)c2ccc(Nc3ncc(F)c(-c4cc(F)c5nc(C)n(C(C)C)c5c4)n3)nc2)CC1 (single isomer, unassigned) [Example 40] and stop.
Found: > 7.00

Lookup: Specify pIC50 for CCN1CCC(C(OC(C)=O)c2ccc(Nc3ncc(F)c(-c4cc(F)c5nc(C)n(C(C)C)c5c4)n3)nc2)CC1 (single isomer, unassigned) [Example 72] and stop.
Found: > 7.00

Lookup: Specify pIC50 for COCCN1CCC(=Cc2ccc(Nc3ncc(F)c(-c4cc(F)c5nc(C)n(C(C)C)c5c4)n3)nc2)CC1 and stop.
Found: > 7.00

Lookup: Specify pIC50 for Cc1nc2c(F)cc(-c3nc(Nc4ccc([C@@H](O)C5CCN(C)CC5)cn4)ncc3F)cc2n1C(C)C and stop.
Found: > 7.00

Lookup: Specify pIC50 for Cc1nc2c(F)cc(-c3nc(Nc4ccc([C@H](C)C5CCN(C)CC5)cn4)ncc3F)cc2n1C(C)C (single isomer, unassigned) and stop.
Found: > 7.00

Lookup: Specify pIC50 for CCN1CCC([C@H](OC)c2ccc(Nc3ncc(F)c(-c4cc(F)c5nc(C)n(C(C)C)c5c4)n3)nc2)CC1 and stop.
Found: > 7.00

Lookup: Specify pIC50 for CCN1CCC(C(C)c2ccc(Nc3ncc(F)c(-c4cc(F)c5nc(C)n(C(C)C)c5c4)n3)nc2)CC1 (single isomer, unassigned) [Example 17] and stop.
Found: > 7.00

Lookup: Specify pIC50 for Cc1nc2c(F)cc(-c3nc(Nc4ccc(C(C)C5CCNCC5)cn4)ncc3F)cc2n1C(C)C (single isomer, unassigned) [Example 20] and stop.
Found: 6.30 to 7.00

Lookup: Specify pIC50 for CC[C@H](c1ccc(Nc2ncc(F)c(-c3cc(F)c4nc(C)n(C(C)C)c4c3)n2)nc1)C1CCN(CC)CC1 and stop.
Found: 6.00 to 6.30

Lookup: Specify pIC50 for Cc1nc2c(F)cc(-c3nc(Nc4ccc([C@H](O)C5CCN(C)CC5)cn4)ncc3F)cc2n1C(C)C and stop.
Found: 6.30 to 7.00

Lookup: Specify pIC50 for Cc1nc2c(F)cc(-c3nc(Nc4ccc([C@H](C)C5CCN(CCO)CC5)cn4)ncc3F)cc2n1C(C)C and stop.
Found: > 7.00

Lookup: Specify pIC50 for CCC(c1ccc(Nc2ncc(F)c(-c3cc(F)c4nc(C)n(C(C)C)c4c3)n2)nc1)N1CCN(CC)CC1 (single isomer, unassigned) [Example 2] and stop.
Found: 5.00 to 6.00

Lookup: Specify pIC50 for C=C(c1ccc(Nc2ncc(F)c(-c3cc(F)c4nc(C)n(C(C)C)c4c3)n2)nc1)C1CCNCC1 and stop.
Found: 6.30 to 7.00

Lookup: Specify pIC50 for Cc1nc2c(F)cc(-c3nc(Nc4ccc([C@@H](C)C5CCN(C6CC6)CC5)cn4)ncc3F)cc2n1C(C)C and stop.
Found: 6.30 to 7.00

Lookup: Specify pIC50 for Cc1nc2c(F)cc(-c3nc(Nc4ccc(C=C5CCN(CC(F)F)CC5)cn4)ncc3F)cc2n1C(C)C and stop.
Found: > 7.00

Lookup: Specify pIC50 for Cc1nc2c(F)cc(-c3nc(Nc4ccc([C@@H](C)C5CCN(C)CC5)cn4)ncc3F)cc2n1C(C)C (single isomer, unassigned) and stop.
Found: 6.30 to 7.00

Lookup: Specify pIC50 for CCN1CCC(=Cc2ccc(Nc3ncc(F)c(-c4cc(F)c5nc(C)n(C(C)C)c5c4)n3)nc2)CC1 and stop.
Found: > 7.00

Lookup: Specify pIC50 for Cc1nc2c(F)cc(-c3nc(Nc4ccc(C=C5CCN(C)CC5)cn4)ncc3F)cc2n1C(C)C and stop.
Found: 6.30 to 7.00

Lookup: Specify pIC50 for CCN1CCC(=C(C)c2ccc(Nc3ncc(F)c(-c4cc(F)c5nc(C)n(C(C)C)c5c4)n3)nc2)CC1 and stop.
Found: 6.30 to 7.00
